Source: patent US20210275641A1

- measured on: T1, human high affinity trimeric IL-2 receptor (CD25/CD122/CD132) (human, UniProt P01589 22-272; P14784 27-551; P31785 23-369)
- T1 sequence 1: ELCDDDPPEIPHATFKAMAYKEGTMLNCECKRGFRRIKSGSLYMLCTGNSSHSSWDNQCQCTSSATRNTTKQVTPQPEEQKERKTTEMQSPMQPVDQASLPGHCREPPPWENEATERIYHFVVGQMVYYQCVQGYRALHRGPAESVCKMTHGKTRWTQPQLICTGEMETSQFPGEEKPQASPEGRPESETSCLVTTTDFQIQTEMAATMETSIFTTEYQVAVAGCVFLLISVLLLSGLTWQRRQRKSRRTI
- T1 sequence 2: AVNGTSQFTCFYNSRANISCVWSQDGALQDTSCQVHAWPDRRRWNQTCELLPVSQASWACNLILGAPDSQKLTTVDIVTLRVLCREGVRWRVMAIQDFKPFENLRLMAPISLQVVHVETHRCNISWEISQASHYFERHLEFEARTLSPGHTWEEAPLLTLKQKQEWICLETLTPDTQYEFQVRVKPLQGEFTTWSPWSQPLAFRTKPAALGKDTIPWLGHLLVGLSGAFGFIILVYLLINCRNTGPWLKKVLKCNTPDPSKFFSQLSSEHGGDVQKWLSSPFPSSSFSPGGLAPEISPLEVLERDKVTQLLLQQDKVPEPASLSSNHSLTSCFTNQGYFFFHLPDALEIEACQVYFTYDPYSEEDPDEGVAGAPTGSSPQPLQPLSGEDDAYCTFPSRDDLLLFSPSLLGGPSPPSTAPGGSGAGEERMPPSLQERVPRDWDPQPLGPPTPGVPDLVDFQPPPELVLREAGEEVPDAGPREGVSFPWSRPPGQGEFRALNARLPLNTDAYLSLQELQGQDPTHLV
- T1 sequence 3: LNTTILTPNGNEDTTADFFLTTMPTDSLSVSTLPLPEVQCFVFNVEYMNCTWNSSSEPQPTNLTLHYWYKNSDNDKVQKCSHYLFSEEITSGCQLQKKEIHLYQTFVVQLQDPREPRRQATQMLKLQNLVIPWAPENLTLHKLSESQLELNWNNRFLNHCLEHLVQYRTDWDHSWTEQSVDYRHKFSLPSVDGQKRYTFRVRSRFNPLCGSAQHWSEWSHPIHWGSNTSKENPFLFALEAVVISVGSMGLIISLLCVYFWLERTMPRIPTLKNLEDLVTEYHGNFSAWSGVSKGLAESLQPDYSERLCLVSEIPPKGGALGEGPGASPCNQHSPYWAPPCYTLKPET
- test summary: cell-based or functional assay
assay readout: pSTAT5 ratio YT CD25/YT, dilution factor 128, lower table
// return a plain number; no unit text

// query pSTAT5 ratio YT CD25/YT, dilution factor 128, lower table value for entry HEH (ligand) cytokine: APTSSSTKKTQLQLEHLHLDLEMILNGINNYKNPKLTRMLTFKFYMPKKATELKHLQCLEEELKPLEEVLNLAQSKNFHLRPRDLISNINVIVLELKGSETTFMCEYADETATIVEFLNRWITFCHSIISTLT 11.8

Quick one: pSTAT5 ratio YT CD25/YT, dilution factor 128, lower table for DEH (ligand) cytokine: APTSSSTKKTQLQLEHLDLDLEMILNGINNYKNPKLTRMLTFKFYMPKKATELKHLQCLEEELKPLEEVLNLAQSKNFHLRPRDLISNINVIVLELKGSETTFMCEYADETATIVEFLNRWITFCHSIISTLT ? 9.9

So what does the record say about pSTAT5 ratio YT CD25/YT, dilution factor 128, lower table for RAH (ligand) cytokine: APTSSSTKKTQLQLEHLRLDLAMILNGINNYKNPKLTRMLTFKFYMPKKATELKHLQCLEEELKPLEEVLNLAQSKNFHLRPRDLISNINVIVLELKGSETTFMCEYADETATIVEFLNRWITFCHSIISTLT ? 3.7

For the binder shown here, RFH (ligand) cytokine: APTSSSTKKTQLQLEHLRLDLFMILNGINNYKNPKLTRMLTFKFYMPKKATELKHLQCLEEELKPLEEVLNLAQSKNFHLRPRDLISNINVIVLELKGSETTFMCEYADETATIVEFLNRWITFCHSIISTLT , give the reported pSTAT5 ratio YT CD25/YT, dilution factor 128, lower table. 10.6

Tell me the measured pSTAT5 ratio YT CD25/YT, dilution factor 128, lower table of NEH (ligand) cytokine: APTSSSTKKTQLQLEHLNLDLEMILNGINNYKNPKLTRMLTFKFYMPKKATELKHLQCLEEELKPLEEVLNLAQSKNFHLRPRDLISNINVIVLELKGSETTFMCEYADETATIVEFLNRWITFCHSIISTLT , please. 11.9

Can you look up the measured pSTAT5 ratio YT CD25/YT, dilution factor 128, lower table of RRH (ligand) cytokine: APTSSSTKKTQLQLEHLRLDLRMILNGINNYKNPKLTRMLTFKFYMPKKATELKHLQCLEEELKPLEEVLNLAQSKNFHLRPRDLISNINVIVLELKGSETTFMCEYADETATIVEFLNRWITFCHSIISTLT for me? 19
